Provenance of the data: patent US6653311B1

Listing of entries alongside the reported IC50.
Biological target: 5-lipoxygenase (5-LO) (Oryctolagus cuniculus)
Construct: Polymorphonuclear leukocytes (PMNLs) were purified from rabbits by glycogen-intraperitoneal elicited intraperitoneal recruitment; endogenous in cells; host or cells: rabbit peritoneal polymorphonuclear leukocytes (PMNL), glycogen-elicited
Assay: Radioisotopic assay of 5-LO activity (LTB4 formation from 14C-arachidonic acid) in rabbit peritoneal PMNL stimulated with A-23187
Format: cell-based
Conditions: measured on PMNL; read-out: IC50 (concentration causing 50% inhibition of LTB4 formation), in parentheses (converted)

// solved cases for IC50 follow
CC1=C(C)C(=O)C(Nc2nc(C)cc(C)n2)=CC1=O	175 nM
O=C1C=C(Nc2ncccn2)C(=O)c2ccccc21	165 nM
O=C1C=C(Nc2ccccn2)C(=O)c2ccccc21	45 nM

Noted for "COC1=C(OC)C(=O)C(Nc2ccccn2)=C(C)C1=O" : its IC50 reads 155 nM

Consider "Cc1cc(C)nc(NC2=CC(=O)c3ccccc3C2=O)n1" . Its measured IC50 is 161 nM

Please fill in: IC50 reported for "O=C1C=C(Nc2ccc(Br)cn2)C(=O)c2ccccc21" = 142 nM

* * *

Target: 5-lipoxygenase (5-LO) (Oryctolagus cuniculus, UniProt G1SNX0)
Construct: Polymorphonuclear leukocytes (PMNLs) were purified from rabbits by glycogen-intraperitoneal elicited intraperitoneal recruitment; endogenous in cells; host or cells: rabbit peritoneal polymorphonuclear leukocytes (PMNL), glycogen-elicited
Sequence (G1SNX0 1-674): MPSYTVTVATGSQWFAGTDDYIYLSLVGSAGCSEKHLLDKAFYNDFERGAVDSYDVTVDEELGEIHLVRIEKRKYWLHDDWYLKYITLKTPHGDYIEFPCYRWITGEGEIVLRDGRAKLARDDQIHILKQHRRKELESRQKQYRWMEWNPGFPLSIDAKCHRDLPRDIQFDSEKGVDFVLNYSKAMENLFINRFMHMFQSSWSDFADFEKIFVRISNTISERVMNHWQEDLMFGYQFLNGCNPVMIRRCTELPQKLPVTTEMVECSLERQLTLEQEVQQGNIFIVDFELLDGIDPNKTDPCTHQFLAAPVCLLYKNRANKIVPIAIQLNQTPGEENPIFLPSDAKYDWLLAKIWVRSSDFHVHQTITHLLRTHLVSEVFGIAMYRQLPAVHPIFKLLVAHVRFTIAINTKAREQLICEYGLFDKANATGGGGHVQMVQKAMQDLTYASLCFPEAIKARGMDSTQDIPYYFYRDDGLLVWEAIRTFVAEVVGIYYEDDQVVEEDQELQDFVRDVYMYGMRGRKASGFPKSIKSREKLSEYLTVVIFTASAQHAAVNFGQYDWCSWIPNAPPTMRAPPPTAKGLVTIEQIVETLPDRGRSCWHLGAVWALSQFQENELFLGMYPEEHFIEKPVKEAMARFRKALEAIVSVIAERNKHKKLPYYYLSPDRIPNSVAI
Test: Radioisotopic assay of 5-LO activity (LTB4 formation from 14C-arachidonic acid) in rabbit peritoneal PMNL stimulated with A-23187
Type: cell-based
Details: at 1 μM; rabbit peritoneal neutrophils (PMNL); mean ± s.d. of three experiments in duplicate; read-out: % Inhibition (percent inhibition of LTB4 formation)
Source text: The 5-LO enzyme, which is found primarily in cells of myeloid origin such as polymorphonuclear leukocytes (“PMNL”), eosinophils, and macrophages, catalyzes the first step of the biochemical pathway in which arachadonic acid (“AA”) is,converted into LTA4. […] Bands containing 5-lipoxygenase (5-LO) metabolites were scraped from the TLC plates, and ^14C levels were quantitatively measured by liquid scintillation. […]
Measured Quantity: inhibition at 1 µM (%)
Please respond with the number in % and leave the unit unwritten.

Reference set, count: 5
CC1=CC(=O)C(Nc2ccccn2)=CC1=O [Compound 4c]	94
CC1=C(C)C(=O)C(Nc2nc(C)cc(C)n2)=CC1=O [Compound 4s]	96
CC1=C(C)C(=O)C(Nc2ccccn2)=CC1=O [Compound 4d]	88
O=C1C=C(Nc2ccc(Br)cn2)C(=O)c2ccccc21 [Compound 4l]	100
CC1=CC(=O)C=C(Nc2ccccn2)C1=O [Compound 4b]	86

inhibition at 1 µM reported for this compound Cc1cc(C)nc(NC2=CC(=O)c3ccccc3C2=O)n1 [Compound 4t] : 98

// O=C1C=C(Nc2ccccn2)C(=O)C(c2ccccc2)=C1 [Compound 4f] : inhibition at 1 µM value = 64
